Test system: psychomotor seizures induced by a 44 mA, 6 Hz stimulus in mice
method: Psychomotor seizure test 6 Hz (44 mA)
Assay type: in vivo
study conditions: 0.5 h after i.p. administration, in mg/kg
measurement type: ED50 6 Hz (44 mA)
Answers are plain numbers.

Examples with their reported ED50 6 Hz (44 mA) follow.
[2H]c1c([2H])c([2H])c(CNC(=O)[C@@H](C)N2C(=O)C([2H])([2H])C([2H])([2H])C2=O)c([2H])c1[2H] [d9-(R)-2]; 78.3
[2H]C1([2H])C(=O)N([C@H](C)C(=O)NCc2ccccc2)C(=O)C1([2H])[2H] [d4-(R)-1]; 79.2

Record ED50 6 Hz (44 mA) for all entries; do not skip any.
1. C[C@H](C(=O)NCc1ccccc1)N1C(=O)CCC1=O [Compound 1, reference compound]
2. [2H]C([2H])(NC(=O)[C@@H](C)N1C(=O)C([2H])([2H])C([2H])([2H])C1=O)c1ccccc1F [d6-(R)-7]
3. [2H]c1c([2H])c([2H])c(C([2H])([2H])NC(=O)[C@@H](C)N2C(=O)C([2H])([2H])C([2H])([2H])C2=O)c([2H])c1[2H] [d11-(R)-6]
4. [2H]C1([2H])C(=O)N([C@H](C)C(=O)NCc2ccccc2F)C(=O)C1([2H])[2H] [d4-(R)-4]

Out:
1. 77.3
2. 25.1
3. 57.6
4. 51.6

Record ED50 6 Hz (44 mA) for all entries; do not skip any.
1. [2H]C([2H])(NC(=O)[C@@H](C)N1C(=O)C([2H])([2H])C([2H])([2H])C1=O)c1ccccc1 [d6-(R)-5]
2. CC(C(=O)NCc1ccccc1F)N1C(=O)CCC1=O (centres unmarked) [Compound 2, reference compound]

Out:
1. 85.6
2. 78.3
